Attribution: patent US20260258084A1

experiment: Solubility testing of peptides at different pH; format: physicochemical; settings: 50 mM HCl buffer; 50 mM HCl pH 1.2; target concentration 1 mg/ml; 2 hours agitation; read-out: Solubility Buffer pH 1.2
Starred links: 1 amine or outer side, 2 acyl side, 3 side chain; linkers in the order of their positions; H or OH if unused. Positions of bridges follow the written chain, without caps; N, C: chain ends. Non-standard residues stand in square brackets, D forms with d. Residues, ends and D or L forms follow the SMILES beside them. *: point of attachment. X5 = CN(C(=O)CCC(=O)[*:3])[C@@H](CS[*:2])C(=O)[*:1]; Trp(7-Me) = Cc1cccc2c(C[C@H](N)C(=O)O)c[nH]c12; 2Nal = N[C@@H](Cc1ccc2ccccc2c1)C(=O)O; 3Pal = N[C@@H](Cc1cccnc1)C(=O)O; Lys(Me) = CNCCCC[C@H](N)C(=O)O; Thp = NC1(C(=O)O)CCOCC1; Me2NCH2CH2 = CN(C)CC*; Sar = CNCC(=O)O
Readout label: solubility at 2 h

I am curious: what solubility at 2 h value has been reported for CC(=O)NCCCC[C@@H]1NC(=O)[C@H](Cc2c[nH]c3c(C)cccc23)NC(=O)[C@@H](NC(C)=O)CCCCNC(=O)[C@@H]2CSSC[C@H](NC1=O)C(=O)N[C@@H](Cc1ccc(OCCN(C)C)cc1)C(=O)N[C@@H](Cc1ccc3ccccc3c1)C(=O)NC1(CCOCC1)C(=O)N[C@H](C(=O)N[C@@H](CC(N)=O)C(=O)N[C@@H](Cc1cccnc1)C(=O)N(C)CC(N)=O)CCCCN(C)C(=O)CCC(=O)N2C [compound 74] (Ac-K[Trp(7-Me)]K(Ac)CY(Me2NCH2CH2)[2Nal][Thp][Lys(Me)]N[3Pal][Sar]-NH2; linker 1-4-8 via X5) ? ≥ 1390 µg/mL
